assay text: chemical genetic growth profiling, strain panel (AID 1159580);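 further: tested at 20 µM; growth read once vehicle control cultures reached saturation at 30 °C; lower values mean less growth of the strain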
protocol conditions: S. cerevisiae deletion strains, growth OD, locus YOR270C, strain vph1
The campaign covered roughly 5,500 compounds. About 2,000 (36%) were called active. Roughly 18% stayed inconclusive and do not appear here. No stated cut-off is given here; in the data, active means normalized growth mostly below about 0.91 (no sharp cut-off); inconclusive means no clear call, values can overlap the other calls; inactive means mostly above about 0.92. Some of the results follow.
Outcome codes: active, inactive

CCCc1cc(=O)[nH]c(=S)[nH]1; inactive
Cc1cc(=O)[nH]c(=S)[nH]1; inactive
C[n+]1ccccc1/C=N/O; inactive
COC1CC2CCC(C)C(O)(O2)C(=O)C(=O)N2CCCCC2C(=O)OC(C(C)CC2CCC(O)C(OC)C2)CC(=O)C(C)/C=C(\C)C(O)C(OC)C(=O)C(C)CC(C)/C=C/C=C/C=C/1C (configuration not stated); active
CCC(C)[C@H]1O[C@]2(C=C[C@@H]1C)C[C@@H]1C[C@@H](C/C=C(\C)[C@@H](OC3C[C@H](OC)C(O[C@H]4C[C@H](OC)[C@@H](O)[C@H](C)O4)[C@H](C)O3)[C@@H](C)/C=C/C=C3\CO[C@@H]4[C@H](O)C(C)=C[C@@H](C(=O)O1)[C@]34O)O2 (some centres not stated); active
CO[C@H]1CC(O[C@@H]2/C(C)=C/C[C@@H]3C[C@@H](C[C@]4(CC[C@H](C)[C@@H](C5CCCCC5)O4)O3)OC(=O)[C@@H]3C=C(C)/C(=N\O)[C@H]4OC/C(=C\C=C\[C@@H]2C)[C@]43O)O[C@@H](C)C1O (some centres not stated); inactive
COc1ccccc1OCC(O)CO (configuration not stated); inactive
